Experiment: qHTS of pediatric cancer cell lines to identify multiple opportunities for drug repurposing: Primary screen for Rh18 cells (AID 1347102); also: nearly all actives have a fitted effect of over 65% in size; also: potency is read from the fitted curve at half-maximal effect
Details: Rh18 rhabdomyosarcoma viability, CellTiter-Glo luminescence, 48 h; series mostly up to 46 µM
Records with an inconclusive call do not appear. Activity calls are given as the source filed them. Calls follow the shape of the dose curve; as a rule, active = well fitted cell-killing curve with a large enough effect; inconclusive = small, poorly fitted or top-dose-only effect; inactive = flat fitted curve, though single readings scatter.
READOUT: Potency

Examples with their reported Potency follow.
CCOc1cc(C(=O)Nc2ccc(Cl)c(-c3nc4ccccc4[nH]3)c2)cc(OCC)c1OCC    inactive
Cc1cc2c(C(C)C)c(O)c(O)c(C=O)c2c(O)c1-c1c(C)cc2c(C(C)C)c(O)c(O)c(C=O)c2c1O    23.5 µM (active)
CCOC(=O)N[C@@H]1CC[C@@H]2[C@@H](C1)C[C@H]1C(=O)O[C@H](C)[C@H]1[C@@H]2C=Cc1ccc(-c2cccc(F)c2)cn1    inactive
O=S(=O)(N=Cc1c(O)ccc2ccccc12)c1cccs1    inactive
COc1ccc2nc(S(=O)Cc3ncc(C)c(OC)c3C)[nH]c2c1 (stereo not given)    inactive
Cc1ccc(N(CC2=NCCN2)c2cccc(O)c2)cc1    inactive

Prompt line: Any idea what its Potency is? The molecule is NC(N)=NC(=O)c1nc(Cl)c(N)nc1N
Response line: inactive

Prompt line: Any idea what its Potency is? The molecule is N[C@@H]1CONC1=O
Response line: inactive

Prompt line: Any idea what its Potency is? The molecule is CCCC(CCC)C(=O)O
Response line: inactive

Prompt line: Any idea what its Potency is? The molecule is Cc1cnc(NC(=O)C2=C(O)c3ccccc3S(=O)(=O)N2C)s1
Response line: inactive

* * *

Experiment: qHTS Screen of the MIPE 4.0 Collection Against Ewings Sarcoma (RDES) (AID 1259252); also: nearly all actives have a fitted effect of over 35% in size
Conditions: RD-ES Ewing sarcoma viability, CellTiter-Glo, 48 h; series mostly up to 45.8 µM
Inconclusive results are not listed. Active and inactive are the calls of the source. Calls come from the whole dose curve; as a rule, active = well fitted inhibition curve with a large enough effect; inconclusive = small, poorly fitted or top-dose-only effect; inactive = no such curve, though single readings can be large or run the other way.
Log the outcome using a class from true for active, false for inactive

Check out these entries, answers already filled in.
CCc1cc(Nc2nccc(-c3c(-c4ccc(OC)c(C(=O)Nc5c(F)cccc5F)c4)nc4ccccn34)n2)c(OC)cc1N1CCC(N2CCN(S(C)(=O)=O)CC2)CC1    true
CN(C(=O)c1ccc(F)cc1C(F)(F)F)C1CCN(c2nnc(-c3ccnn3C)c3ccccc23)CC1    true
Cc1cc2c(F)c(Oc3ncnn4cc(OC[C@@H](C)O)c(C)c34)ccc2[nH]1    true
O=C(NOC[C@H](O)CO)c1ccc(F)c(F)c1Nc1ccc(I)cc1F    true
Cc1oncc1C(=O)Nc1ccc(C(F)(F)F)cc1    true
CCCS(=O)(=O)Nc1ccc(F)c(C(=O)c2c[nH]c3ncc(-c4ccc(Cl)cc4)cc23)c1F    true
CNC(=O)c1ccc(N2C(=S)N(c3ccc(C#N)c(C(F)(F)F)c3)C(=O)C2(C)C)cc1F    false
COc1ccc(-c2oc3cc(OC)ccc3c2C(=O)c2ccc(C#N)cc2)cc1    false

Prompt line: I'd appreciate the recorded outcome for C#Cc1cccc(Nc2ncnc3cc(OCCOC)c(OCCOC)cc23)c1 from this test.
Response line: true

Prompt line: I'd appreciate the recorded outcome for O=c1ncn2nc(Sc3ccc(F)cc3F)ccc2c1-c1c(Cl)cccc1Cl from this test.
Response line: true

Prompt line: I'd appreciate the recorded outcome for Cc1cnc(Nc2ccc(OCCN3CCCC3)cc2)nc1Nc1cccc(S(=O)(=O)NC(C)(C)C)c1 from this test.
Response line: false

Prompt line: I'd appreciate the recorded outcome for O=c1[nH]c(-c2ccc(C(F)(F)F)cc2)nc2c1CSCC2 from this test.
Response line: true

Prompt line: I'd appreciate the recorded outcome for S=C(NCc1ccc2c(c1)OCO2)N1CCN(c2ncnc3c2oc2ccccc23)CC1 from this test.
Response line: true

Prompt line: I'd appreciate the recorded outcome for CCCS(=O)(=O)Nc1ccc(F)c(C(=O)c2c[nH]c3ncc(Cl)cc23)c1F from this test.
Response line: true

Prompt line: I'd appreciate the recorded outcome for Cc1cnc(NC(=O)C2=C(O)c3ccccc3S(=O)(=O)N2C)s1 from this test.
Response line: false

Prompt line: I'd appreciate the recorded outcome for CC(C)(C)OC(=O)CN(Cc1ccc(Cl)cc1)Cc1ccc([N+](=O)[O-])s1 from this test.
Response line: false

Prompt line: I'd appreciate the recorded outcome for NC(N)=NC(=O)c1nc(Cl)c(N)nc1N from this test.
Response line: false

Prompt line: I'd appreciate the recorded outcome for CC(C[N+](C)(C)C)OC(N)=O (stereo not given) from this test.
Response line: false

Prompt line: I'd appreciate the recorded outcome for O=C(C=Cc1ccc(/C=C/C(=O)Nc2ccc(C3=NCCN3)cc2)cc1)Nc1ccc(C2=NCCN2)cc1 from this test.
Response line: false

Prompt line: I'd appreciate the recorded outcome for Oc1ccc(C2CNCCc3c2cc(O)c(O)c3Cl)cc1 (stereo not given) from this test.
Response line: false

Prompt line: I'd appreciate the recorded outcome for CC1(C)CNc2cc(NC(=O)c3cccnc3NCc3ccncc3)ccc21 from this test.
Response line: true

* * *

Test: qHTS of pediatric cancer cell lines to identify multiple opportunities for drug repurposing: Primary screen for OHS-50 cells (AID 1347103); also: nearly all actives have a fitted effect of over 40% in size
Settings: OHS-50 osteosarcoma viability, CellTiter-Glo luminescence, 48 h; series mostly up to 57.3 µM
Records with an inconclusive call do not appear. Active and inactive are the calls of the source. Calls come from the whole dose curve; as a rule, active = well fitted cell-killing curve with a large enough effect; inconclusive = small, poorly fitted or top-dose-only effect; inactive = no such curve, though single readings can be large or run the other way.
Log the outcome using a class from active, inactive

Check out these entries, answers already filled in.
NC(=O)c1cnccn1    inactive
CCC(=O)N[C@H]1CC[C@H](C(=O)N(C)c2ccc(-c3nc4ccccc4o3)cc2)C1    active
CC(C)OC(=O)C1=CN(C(=O)c2ccc(F)c(F)c2)CC(C)(C)c2c1[nH]c1ccccc21    inactive

Prompt line: I'd appreciate the recorded outcome for CC(C[N+](C)(C)C)OC(N)=O (stereo not given) from this test.
Response line: inactive

Prompt line: I'd appreciate the recorded outcome for Cc1cc2c(F)c(Oc3ncnn4cc(OC[C@@H](C)O)c(C)c34)ccc2[nH]1 from this test.
Response line: active

Prompt line: I'd appreciate the recorded outcome for OC(CN1CCC(Cc2ccc(F)cc2)CC1)c1ccc(Cl)cc1 (stereo not given) from this test.
Response line: inactive

Prompt line: I'd appreciate the recorded outcome for O=C(NOC[C@H](O)CO)c1ccc(F)c(F)c1Nc1ccc(I)cc1F from this test.
Response line: inactive

Prompt line: I'd appreciate the recorded outcome for NCCc1ccc(O)c(O)c1 from this test.
Response line: inactive

Prompt line: I'd appreciate the recorded outcome for CS(=O)(=O)Oc1ccc2c(NC(N)=O)c(C(=O)c3ccc(Cl)cc3Cl)oc2c1 from this test.
Response line: active

Prompt line: I'd appreciate the recorded outcome for O=C(C1CC1)N1CC[C@@H](Cn2c(-c3ccc(-c4ccc5occc5c4)cc3)nc3cnccc32)C1 from this test.
Response line: inactive

* * *

Assay: Quantitative High-Throughput drug screen in 47 multiple myeloma cell lines against the NCATS MIPE library collection: OPM1_PLB cell viability assay (AID 1918989); also: nearly all actives have a fitted effect of over 40% in size
Settings: CellTiter-Glo, 48 h; series mostly up to 45.8 µM
Inconclusive results are not listed. The source made the active and inactive calls. The call rests on the fitted dose curve; in most records, active means well fitted cell-killing curve with a large enough effect; inconclusive means small, poorly fitted or top-dose-only effect, or effect the other way; inactive means no such curve, though single readings can be large or run the other way.
Log the outcome using a class from active, inactive

Check out these entries, answers already filled in.
Cc1ccc(NC(=O)c2cccc(C(C)(C)C#N)c2)cc1Nc1ccc2ncn(C)c(=O)c2c1    active
COc1ccccc1[C@H](c1cccc2ccccc12)[C@@](C)(C#N)C(=O)N1CCC(c2cccc(C(F)(F)F)c2)CC1    active

Prompt line: I'd appreciate the recorded outcome for CC(=O)NC(C)c1ccc(Oc2ccc(OC(C)C)cc2)cc1 (stereo unspecified) from this test.
Response line: active

Prompt line: I'd appreciate the recorded outcome for O=C(Nc1ccc(F)c(C(F)(F)F)c1)Nc1nnc(-c2ccncc2)s1 from this test.
Response line: active

Prompt line: I'd appreciate the recorded outcome for Oc1ccc(C2CNCCc3c2cc(O)c(O)c3Cl)cc1 (stereo unspecified) from this test.
Response line: inactive

Prompt line: I'd appreciate the recorded outcome for O=C1CCCC2=C1C(c1[nH]ncc1Cl)N=C(Nc1nc3ccccc3o1)N2 (stereo unspecified) from this test.
Response line: active

Prompt line: I'd appreciate the recorded outcome for CC(c1cc2ccccc2s1)N(O)C(N)=O (stereo unspecified) from this test.
Response line: inactive

Prompt line: I'd appreciate the recorded outcome for c1ccc(-c2nn3c(c2-c2ccnc4cc(OCCN5CCOCC5)ccc24)CCC3)nc1 from this test.
Response line: inactive

* * *

Quick list: activity, negative = cell killing per entry.
Assay: Drug repurposing screens with cells derived from glioblastoma tumor samples (AID 1345199); also: % is scaled to controls: 0 for no effect and ±100 for the full control effect; nearly all actives have a fitted effect of over 40% in size
Details: GBM patient neurospheres viability, ATP luminescence, 48 h; at 46.1 µM (top of the series); tumour line C
Procedure: CD133+ cells were isolated from GBM patient biopsies and cultured as neurospheres. Neurospheres from four patients were used to screen the NCATS pharmaceutical collection (NPC) library of approved drugs and bioactive compounds. […] The neurospheres were incubated with drugs for 48 hours in 1536-well format, then assayed with an ATP content cell viability assay. […]
Records with an inconclusive call do not appear.
The reply should be a number in %, with the unit left off.

Examples with their reported activity, negative = cell killing follow.
NCCCC(N)(C(=O)O)C(F)F (stereo unspecified)    -4.46
Nc1nc2ccc(OC(F)(F)F)cc2s1    16.9
Cc1cn[nH]c1    -3.17
O=c1[nH]cnc2[nH]ncc12    7.88
NCCc1ccc(O)c(O)c1    13.2

Prompt line: Any idea what its activity, negative = cell killing is? The compound is CCN(CC)CCCC(C)Nc1ccnc2cc(Cl)ccc12 (stereo unspecified)
Response line: 3.03

From: PubChem BioAssay (NCATS)
